EXPERIMENTAL TARGET: Human neutrophil elastase (Homo sapiens, UniProt P08246)
Sequence (P08246 30-267): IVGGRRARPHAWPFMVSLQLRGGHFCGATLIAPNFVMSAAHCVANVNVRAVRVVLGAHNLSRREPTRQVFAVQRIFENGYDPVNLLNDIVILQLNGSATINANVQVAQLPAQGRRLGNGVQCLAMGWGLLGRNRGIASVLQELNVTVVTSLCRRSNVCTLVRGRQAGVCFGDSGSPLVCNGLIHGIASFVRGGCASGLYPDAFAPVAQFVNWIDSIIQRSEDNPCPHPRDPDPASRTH
METHOD SUMMARY: Human Neutrophil Elastase Assay
STATED CONDITIONS: Neutrophil Elastase assay; substrate MeOSuc-Ala-Ala-Pro-Val-AMC 250 μM; 15 min preincubation, 60 min incubation at room temperature; pH 7.5
OBSERVABLE: IC50 (nM)
Give the value in nM but do not write nM after it.

Below are worked cases with known answers.
- COMPOUND: "COCCNC(=O)c1cn(Cc2ccc(C#N)cc2)c(C)c(-c2cccc(C(F)(F)F)c2)c1=O [Example 1.5]"
  IC50 [nM]: 10.4
- COMPOUND: "Cc1c(-c2cccc(F)c2)c(=O)c(C(=O)NCc2ccc(S(C)(=O)=O)cc2)cn1Cc1ccc(C#N)cc1 [Example 6.5]"
  IC50 [nM]: 9.6
- COMPOUND: "CNC(=O)c1cn(C(C)c2ccc(C#N)cn2)c(C)c(-c2cccc(C(F)F)c2)c1=O (stereo not shown) [Example 16]"
  IC50 [nM]: 9.9
- COMPOUND: "Cc1c(-c2cccc(C(F)(F)F)c2)c(=O)c(C(=O)NCC(=O)N(C)C)cn1Cc1ccc(C#N)cc1 [Example 1.65]"
  IC50 [nM]: 38.5
- COMPOUND: "Cc1c(-c2cccc(C(F)(F)F)c2)c(=O)c(C(=O)NCc2cccnn2)cn1Cc1ccc(C#N)cc1 [Example 1.41]"
  IC50 [nM]: 3.2

// field: IC50; key: Cc1c(-c2cccc(C(F)(F)F)c2)c(=O)c(C(=O)NCc2cncn2C)cn1Cc1ccc(C#N)cc1 [Example 1.32] ; value = 23

Summary for this compound, Cc1c(-c2ccnc(C(F)(F)F)c2)c(=O)c(C(=O)NCC[S+](C)[O-])cn1C(C)c1ccc(C#N)cc1 (stereo not shown) [Example 9.3] : IC50 is 3.9

The values you see were collected from patent USRE46630E1.
